tested on: 565232-114-T-J1-PDC complex spheroid viability; assay: Anticancer human tumor 565232-114-T-J1-PDC patient-derived bladder carcinoma cell line growth inhibition [CLK]; conditions: second compound 0.1 µM; first compound 3.16 µM; active = viability on the fitted dose curve at most 10% of control; inactive = the rest
Would you mind answering with one of these outcomes? 1 for active, -1 for inactive

MOLECULE: CC1(C)CCC(CN2CCN(c3ccc(C(=O)NS(=O)(=O)c4ccc(NCC5CCOCC5)c([N+](=O)[O-])c4)c(Oc4cnc5[nH]ccc5c4)c3)CC2)=C(c2ccc(Cl)cc2)C1 + CN1CCN(c2cc(C(=O)Nc3cc4cc(-c5cnn(C)c5)ccc4cn3)ccn2)CC1
ASSIGNED_CLASS: -1
//
MOLECULE: Nc1ccccc1NC(=O)c1ccc(CNC(=O)OCc2cccnc2)cc1 + CNC(=O)c1ccc(Nc2nc(OC3CCCC3)c3c(-c4ccc5nc(C)oc5c4)c[nH]c3n2)c(OC)c1
ASSIGNED_CLASS: -1

// return assay outcome for CC1COCCN1c1cc(C2(S(C)(=N)=O)CC2)nc(-c2ccnc3[nH]ccc23)n1 (stereo not given) + CNC(=O)c1ccc(Nc2nc(OC3CCCC3)c3c(-c4ccc5nc(C)oc5c4)c[nH]c3n2)c(OC)c1
-1

// return assay outcome for C=CC(=O)N1CCN(c2nc(=O)n(-c3c(C)ccnc3C(C)C)c3nc(-c4c(O)cccc4F)c(F)cc23)C(C)C1 (stereo not given) + CNC(=O)c1ccc(Nc2nc(OC3CCCC3)c3c(-c4ccc5nc(C)oc5c4)c[nH]c3n2)c(OC)c1
-1

// return assay outcome for CC1(C)CCC(CN2CCN(c3ccc(C(=O)NS(=O)(=O)c4ccc(NCC5CCOCC5)c([N+](=O)[O-])c4)c(Oc4cnc5[nH]ccc5c4)c3)CC2)=C(c2ccc(Cl)cc2)C1 + CNC(=O)c1ccc(Nc2nc(OC3CCCC3)c3c(-c4ccc5nc(C)oc5c4)c[nH]c3n2)c(OC)c1
-1

// return assay outcome for CC(CO)NC(=O)c1cc(-c2ccc(Cl)cc2)nn(-c2cnn(C)c2)c1=O (stereo not given) + CN1CCN(c2cc(C(=O)Nc3cc4cc(-c5cnn(C)c5)ccc4cn3)ccn2)CC1
-1

// return assay outcome for O=C(c1cc(Cc2n[nH]c(=O)c3ccccc23)ccc1F)N1CCN(C(=O)C2CC2)CC1 + CNC(=O)c1ccc(Nc2nc(OC3CCCC3)c3c(-c4ccc5nc(C)oc5c4)c[nH]c3n2)c(OC)c1
-1

###

test system: 565232-114-T-J1-PDC complex spheroid viability; experiment: Anticancer human tumor 565232-114-T-J1-PDC cell line growth inhibition [CLK]; details: second compound 10 µM; first compound 0.1 µM; active means viability on the fitted dose curve at most 10% of control; inactive means the rest;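 note: spheroids exposed to compounds for 7 days before readout; 100% = DMSO vehicle wells with luminescence normalized to vehicle control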
Would you mind answering with one of these outcomes? active, inactive

COMPOUND: CC(=O)O[C@H]1C(=O)[C@@]2(C)[C@H]([C@H](OC(=O)c3ccccc3)[C@]3(O)C[C@H](OC(=O)[C@H](O)[C@@H](NC(=O)c4ccccc4)c4ccccc4)C(C)=C1C3(C)C)[C@]1(OC(C)=O)CO[C@@H]1C[C@@H]2O + CNC(=O)c1ccc(Nc2nc(OC3CCCC3)c3c(-c4ccc5nc(C)oc5c4)c[nH]c3n2)c(OC)c1
ASSIGNED_CLASS: inactive

Shift focus to the following entry.
// return assay outcome for O=c1[nH]cc(F)c(=O)[nH]1 + CN1CCN(c2cc(C(=O)Nc3cc4cc(-c5cnn(C)c5)ccc4cn3)ccn2)CC1
active
